target.or.system: EGFR Del19/C797S (Homo sapiens, UniProt P00533, C797S/DEL746-750)
Sequence (P00533 with tags, fused parts or gaps DEL746-750/C797S): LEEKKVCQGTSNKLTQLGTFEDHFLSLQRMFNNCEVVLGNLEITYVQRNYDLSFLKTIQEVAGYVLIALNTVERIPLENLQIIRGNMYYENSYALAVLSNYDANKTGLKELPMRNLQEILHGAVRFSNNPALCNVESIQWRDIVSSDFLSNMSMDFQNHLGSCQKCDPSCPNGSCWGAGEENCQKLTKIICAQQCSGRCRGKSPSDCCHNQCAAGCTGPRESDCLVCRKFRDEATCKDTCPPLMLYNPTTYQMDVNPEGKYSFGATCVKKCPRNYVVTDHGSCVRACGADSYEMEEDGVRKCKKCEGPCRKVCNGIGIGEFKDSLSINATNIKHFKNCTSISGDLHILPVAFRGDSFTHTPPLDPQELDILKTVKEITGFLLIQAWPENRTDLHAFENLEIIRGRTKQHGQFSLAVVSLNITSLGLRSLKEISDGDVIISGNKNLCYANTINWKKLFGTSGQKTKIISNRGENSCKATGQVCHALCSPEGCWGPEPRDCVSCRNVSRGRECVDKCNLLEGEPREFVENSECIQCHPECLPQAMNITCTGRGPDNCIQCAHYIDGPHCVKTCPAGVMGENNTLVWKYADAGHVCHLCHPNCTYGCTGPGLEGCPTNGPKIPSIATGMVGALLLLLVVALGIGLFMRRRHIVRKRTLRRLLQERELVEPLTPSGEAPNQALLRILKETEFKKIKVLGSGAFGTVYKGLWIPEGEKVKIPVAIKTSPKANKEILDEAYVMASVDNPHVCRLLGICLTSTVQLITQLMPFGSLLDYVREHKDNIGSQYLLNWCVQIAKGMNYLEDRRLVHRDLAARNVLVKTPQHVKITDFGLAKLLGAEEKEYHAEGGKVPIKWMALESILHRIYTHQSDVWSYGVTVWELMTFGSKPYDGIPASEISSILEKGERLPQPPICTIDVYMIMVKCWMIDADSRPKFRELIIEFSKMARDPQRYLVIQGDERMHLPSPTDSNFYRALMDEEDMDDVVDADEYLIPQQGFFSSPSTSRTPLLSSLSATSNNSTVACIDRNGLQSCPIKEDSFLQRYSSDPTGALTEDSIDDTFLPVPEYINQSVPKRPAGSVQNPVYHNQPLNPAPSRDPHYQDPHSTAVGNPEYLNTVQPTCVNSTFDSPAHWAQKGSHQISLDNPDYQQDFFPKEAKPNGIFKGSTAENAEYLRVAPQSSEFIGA
method.description: Biochemical EGFR kinase inhibition assay (Lance Ultra TR-FRET), double mutant del19/C797S
condition: IC50 Del19/C797S (nM), 100 μM ATP
measure: IC50 (nM)
Record the value in nM, omitting the unit from your answer.

Below, 3 compounds whose answers are already recorded.
item_smiles=Cn1cc(C#Cc2cnc(Nc3ccnc(-c4cnn(S(=O)(=O)C5CC5)c4)n3)cc2N2CCC(C(F)(F)F)CC2)cn1 quantitative_readout=338
item_smiles=CN1CCC(C#Cc2cnc(Nc3ccnc(-c4cnn(S(=O)(=O)C5CC5)c4)n3)cc2N2CCC(C)(CO)CC2)CC1 quantitative_readout=0.3
item_smiles=Cn1cc(C#Cc2cnc(Nc3ccnc(-c4cnn(S(=O)(=O)C5CC5)c4)n3)cc2N2CCC(CO)CC2)cn1 quantitative_readout=2.7

Now take the following compound into account.
// IC50 lookup, key: CC(C)Nc1cc(Nc2ccnc(-c3cnn(S(=O)(=O)C4CC4)c3)n2)ncc1C#CCCCNC(=O)N1CCOCC1
76.4

----------
target.or.system: EGFR Del19/T790M/C797S (Homo sapiens, UniProt P00533, C797S/DEL746-750/T790M)
Sequence (P00533 with tags, fused parts or gaps DEL746-750/T790M/C797S): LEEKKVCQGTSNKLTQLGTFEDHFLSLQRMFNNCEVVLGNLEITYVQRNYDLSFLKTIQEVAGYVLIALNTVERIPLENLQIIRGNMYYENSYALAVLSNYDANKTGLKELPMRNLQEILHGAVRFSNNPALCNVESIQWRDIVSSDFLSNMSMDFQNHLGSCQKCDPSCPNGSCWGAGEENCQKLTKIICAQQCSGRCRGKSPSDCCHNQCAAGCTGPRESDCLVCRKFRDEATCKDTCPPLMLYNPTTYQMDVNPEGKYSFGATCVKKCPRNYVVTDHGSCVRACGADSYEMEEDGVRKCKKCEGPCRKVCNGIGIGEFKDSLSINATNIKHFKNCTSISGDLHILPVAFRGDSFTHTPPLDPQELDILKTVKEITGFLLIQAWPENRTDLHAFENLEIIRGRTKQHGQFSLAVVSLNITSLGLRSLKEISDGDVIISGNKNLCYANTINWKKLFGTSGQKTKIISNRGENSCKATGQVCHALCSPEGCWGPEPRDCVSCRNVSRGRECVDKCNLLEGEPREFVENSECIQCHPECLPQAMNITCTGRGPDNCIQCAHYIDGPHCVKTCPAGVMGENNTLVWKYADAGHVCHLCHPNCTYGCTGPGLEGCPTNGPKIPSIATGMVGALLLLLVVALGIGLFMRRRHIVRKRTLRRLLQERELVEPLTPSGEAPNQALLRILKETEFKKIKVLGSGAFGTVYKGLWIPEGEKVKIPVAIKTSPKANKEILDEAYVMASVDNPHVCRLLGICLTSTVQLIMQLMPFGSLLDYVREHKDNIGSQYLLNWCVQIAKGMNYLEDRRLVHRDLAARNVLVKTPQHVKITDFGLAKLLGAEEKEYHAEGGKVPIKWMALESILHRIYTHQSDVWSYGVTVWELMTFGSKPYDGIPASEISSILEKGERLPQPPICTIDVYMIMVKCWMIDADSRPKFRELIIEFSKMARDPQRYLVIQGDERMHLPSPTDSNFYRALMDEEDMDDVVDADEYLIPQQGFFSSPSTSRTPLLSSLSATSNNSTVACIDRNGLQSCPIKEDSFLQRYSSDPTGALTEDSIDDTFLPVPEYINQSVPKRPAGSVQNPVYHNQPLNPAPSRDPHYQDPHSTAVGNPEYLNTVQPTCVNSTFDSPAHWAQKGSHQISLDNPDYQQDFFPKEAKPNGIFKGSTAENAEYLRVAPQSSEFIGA
method.description: Biochemical EGFR kinase inhibition assay (Lance Ultra TR-FRET), triple mutant del19/T790M/C797S
condition: Km ATP; read-out: IC50 Del19/T790M/C797S (nM) Km ATP
Experimental: Biochemical EGFR kinase assays were conducted using Lance Ultra time-resolved fluorescence resonance energy transfer (TR-FRET) technology from Perkin-Elmer. […] Each kinase reactions were incubated at room temperature for 1 hour and then stopped by the addition of 4 μL of stop solution (10 mM EDTA). […] After 60 minutes incubation at room temperature the LANCE signal was measured on an EnVision Multilabel Reader (Perkin-Elmer). […]
Reported IC50 values for a set of molecules
Record the value in nM, omitting the unit from your answer.

Below, 3 molecules whose answers are already recorded.
molecule="CCC(C)Oc1cc(Nc2ccnc(-c3cnn(S(=O)(=O)C4CC4)c3)n2)ncc1C#Cc1cnn(C)c1 (stereo not shown) [Example 56]" quantitative_readout=7.6
molecule="Cn1cc(C#Cc2cnc(Nc3ccnc(-c4cnn(S(=O)(=O)C5CC5)c4)n3)cc2N[C@H]2CC[C@@](C)(O)CC2)cn1 [Example 81]" quantitative_readout=0.3
molecule="O=S(=O)(C1CC1)n1cc(-c2nccc(Nc3cc(NC4CCC(O)CC4)c(C#Cc4cnn(C5CC5(F)F)c4)cn3)n2)cn1 (stereo not shown) [Example 85]" quantitative_readout=1.8

Now take the following molecule into account.
// IC50 lookup, key: CN(CCO)c1cc(Nc2ccnc(-c3cnn(S(=O)(=O)C4CC4)c3)n2)ncc1C#Cc1cnn(C)c1 [Example 37]
20.2

----------
Reported IC50 values for a set of compounds
target.or.system: EGFR Del19/C797S (Homo sapiens, UniProt P00533, C797S/DEL746-750)
method.description: Biochemical EGFR kinase inhibition assay (Lance Ultra TR-FRET), double mutant del19/C797S
condition: Km ATP; read-out: IC50 Del19/C797S (nM), Km ATP
Method: Biochemical EGFR kinase assays were conducted using Lance Ultra time-resolved fluorescence resonance energy transfer (TR-FRET) technology from Perkin-Elmer. […] Each kinase reactions were incubated at room temperature for 1 hour and then stopped by the addition of 4 μL of stop solution (10 mM EDTA). […] After 60 minutes incubation at room temperature the LANCE signal was measured on an EnVision Multilabel Reader (Perkin-Elmer). […]
Record the value in nM, omitting the unit from your answer.

What IC50 appears in the records for this compound with EGFR Del19/C797S (Homo sapiens, UniProt P00533, C797S/DEL746-750)? CC1(O)CCN(c2cc(Nc3ccnc(-c4cnn(S(=O)(=O)C5CC5)c4)n3)ncc2C#CC2(C)CC2)CC1 [Example 404]
5.3

What IC50 appears in the records for this compound with EGFR Del19/C797S (Homo sapiens, UniProt P00533, C797S/DEL746-750)? CN1CCC(C#Cc2cnc(Nc3ccnc(-c4cnn(S(=O)(=O)C5CC5)c4)n3)cc2N2CCC3(CCCO3)CC2)C1 (stereo not shown) [Example 372]
0.8

What IC50 appears in the records for this compound with EGFR Del19/C797S (Homo sapiens, UniProt P00533, C797S/DEL746-750)? CN1CCN(Cc2ccc(C#Cc3cnc(Nc4ccnc(-c5cnn(S(=O)(=O)C6CC6)c5)n4)cc3N3CCC(C)(O)CC3)cc2)CC1 [Example 368]
0.6

What IC50 appears in the records for this compound with EGFR Del19/C797S (Homo sapiens, UniProt P00533, C797S/DEL746-750)? CC1(O)CC2(CCN(c3cc(Nc4ccnc(-c5cnn(S(=O)(=O)C6CC6)c5)n4)ncc3C#Cc3cnn(CC(F)(F)F)c3)CC2)C1 [Example 347]
9.2
